Target: Streptokinase A (Streptococcus pyogenes serotype M1)
Sequence (P10520 whole entry): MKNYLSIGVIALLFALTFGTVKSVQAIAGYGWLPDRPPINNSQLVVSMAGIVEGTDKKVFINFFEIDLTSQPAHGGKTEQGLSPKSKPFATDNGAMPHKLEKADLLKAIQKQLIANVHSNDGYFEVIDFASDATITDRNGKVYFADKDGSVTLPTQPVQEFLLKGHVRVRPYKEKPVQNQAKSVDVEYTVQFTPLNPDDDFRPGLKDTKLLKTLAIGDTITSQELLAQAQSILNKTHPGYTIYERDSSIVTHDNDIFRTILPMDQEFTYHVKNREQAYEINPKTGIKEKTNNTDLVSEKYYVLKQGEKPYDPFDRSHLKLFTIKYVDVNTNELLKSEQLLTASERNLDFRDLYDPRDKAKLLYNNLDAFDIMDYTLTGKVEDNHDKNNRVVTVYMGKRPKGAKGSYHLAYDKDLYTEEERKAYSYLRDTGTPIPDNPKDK
Assay: viability-normalized secreted streptokinase activity reduction – plasminogen activation absorbance, OD405, dose response (AID 1914)
Each entry below carries its recorded log10 of EC50.
Note: values are log10 of EC50 expressed in µM.

# annotated cases, reported log10 of EC50 shown
In [3]: df
Out[3]:
                                   compound  measurement_kind  numeric_value
0  N#CC1C(=N)OC2=C(CCc3ccccc32)C1c1ccccc1Cl (centres undefined)     log10 of EC50           1.08
1  O=C1Nc2ccccc2C1=NNc1ccc(S(=O)(=O)Nc2cccc(Cl)c2)cc1[N+](=O)[O-]     log10 of EC50           1.44
2  Oc1ccc2ccccc2c1CN=Nc1nnc(-c2ncc[nH]2)c2ccccc12     log10 of EC50           0.74

Reported log10 of EC50 for `Cn1cnnc1SCc1ccc(C(=O)N/N=C2\C(=O)N(Cc3ccc(Cl)cc3)c3ccccc32)cc1` : what is it?
1.26

Another compound: O=Nc1c(C2C(=O)Nc3cc(Br)ccc32)[nH]c2ccccc12 (centres undefined)
1.65

Another compound: CC1=C2C(=NC3=C(C(=O)c4ccccc43)C2c2c(C)cc(C)cc2C)N(c2ccccn2)N1 (centres undefined)
1.35

Another compound: CCCCCCCCOC(=O)C1C(C)=Nc2nnnn2C1c1cccs1 (centres undefined)
1.70

Another compound: `Oc1ccc(CN=Nc2nc(-c3ccc(Cl)cc3)cc(C(F)(F)F)n2)cc1`
1.21

Another compound: `CC(=NNC(=N)Sc1cc(O)n(-c2ccc(Cl)c(Cl)c2)c1O)c1cccs1`
0.87

Another compound: CC(Oc1ccc(Cl)cc1Cl)C(=O)Nc1cc(=O)n(-c2ccccc2)[nH]1 (centres undefined)
2.09
